test system: Vasopressin V1; assay: Vasopressin V1 Antagonist Activity in Conscious Rats (vasopressin vasopressor response); type: in vivo, rat; set-up: unit not given here; conditions: 10 mg/kg i.v., VAS 0.01 i.u./kg, 30 min, SHR
Measured Average Change, listed per entry.
Write the value as a bare number.

O=C(Nc1ccc(C(=O)N2Cc3cccn3Cc3ccccc32)cc1)c1ccccc1F : 14.5
O=C(Nc1ccc(C(=O)N2Cc3cccn3Cc3ccccc32)cc1)c1ccccc1C(F)(F)F : 5
COc1cc(Cl)ccc1C(=O)Nc1ccc(C(=O)N2Cc3cccn3Cc3ccccc32)cc1 : 5
Cc1ccccc1C(=O)Nc1ccc(C(=O)N2Cc3ccc(Cl)n3Cc3ccccc32)cc1 : 12
O=C(Nc1ccc(C(=O)N2Cc3cccn3Cc3ccccc32)cc1)c1sc2ccccc2c1Cl : 36
O=C(Nc1ccc(C(=O)N2Cc3cccn3Cc3ccccc32)cc1)c1ccc2[nH]ccc2c1 : 36
Cc1ccsc1C(=O)Nc1ccc(C(=O)N2Cc3cccn3Cc3ccccc32)cc1 : 5.5

Please list Average Change recorded for the compound `Cc1ccccc1NC(=O)Nc1ccc(C(=O)N2Cc3cccn3Cc3ccccc32)cc1`
22.5

----------
target: Human V2 Vasopressin Receptor (Homo sapiens, UniProt P30518); construct: expressed in transfected cells; host or cells: mouse fibroblast cell line LV-2; test: Binding to Membranes of Mouse Fibroblast Cell Line (LV-2) Transfected with the cDNA Expressing the Human V2 Vasopressin Receptor; conditions: LV-2 cell membranes, human V2; read-out: V2 IC50 (**)
Sequence (P30518 whole entry): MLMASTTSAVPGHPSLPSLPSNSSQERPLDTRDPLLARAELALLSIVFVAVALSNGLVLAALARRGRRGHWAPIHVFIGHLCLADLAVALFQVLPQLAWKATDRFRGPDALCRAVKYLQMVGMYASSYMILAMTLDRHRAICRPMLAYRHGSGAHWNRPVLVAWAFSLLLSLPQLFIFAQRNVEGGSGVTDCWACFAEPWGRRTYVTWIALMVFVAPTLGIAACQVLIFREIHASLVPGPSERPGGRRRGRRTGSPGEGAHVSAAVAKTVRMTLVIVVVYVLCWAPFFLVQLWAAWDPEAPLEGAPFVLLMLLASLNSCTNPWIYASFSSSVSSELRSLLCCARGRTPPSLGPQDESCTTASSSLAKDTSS
pIC50: −log10 of the molar value.
Returns true (1) if the recorded pIC50 is greater than or equal to 8, and false (0) otherwise.

Some entries whose results are on file:
CSc1ccccc1C(=O)Nc1ccc(C(=O)N2Cc3cccn3Cc3ccccc32)c(Cl)c1 [Example 524] : true (1)
O=C(Nc1ccc(C(=O)N2Cc3cccn3Cc3ccccc32)c(Cl)c1)c1ccc(F)cc1Cl [Example 527] : true (1)
O=C(Nc1ccc(C(=O)N2Cc3cccn3Cc3sccc32)cc1)c1ccc(Cl)cc1Cl [Example 274] : false (0)

API: above_or_equal(metric=pIC50, cutoff=8) for item Cc1c(F)cccc1C(=O)Nc1ccc(C(=O)N2CCc3cccn3-c3ccccc32)c(Cl)c1 [Example 611]
true (1)

API: above_or_equal(metric=pIC50, cutoff=8) for item O=C(Nc1ccc(C(=O)N2Cc3cccn3Cc3ccccc32)cc1)c1cccc2ccccc12 [Example 690]
false (0)

API: above_or_equal(metric=pIC50, cutoff=8) for item CCCCC(=O)Nc1ccc(C(=O)N2Cc3cccn3Cc3ccccc32)cc1 [Example 715]
false (0)

----------
tested on: Vasopressin V1; assay: Vasopressin V1 Antagonist Activity in Conscious Rats (vasopressin vasopressor response); format: in vivo, rat; parameters: unit not given here; conditions: 10 mg/kg i.v., VAS 0.01 i.u./kg, 120 min, SHR
parameter_measured: Average Change
Write the value as a bare number.

Here are 3 compounds together with their reported answers.
O=C(Nc1ccc(C(=O)N2Cc3cccn3Cc3ccccc32)cc1)c1ccccc1F : 11.5
O=C(Nc1ccc(C(=O)N2Cc3cccn3Cc3ccccc32)cc1)c1ccccc1C(F)(F)F : 13
COc1cc(Cl)ccc1C(=O)Nc1ccc(C(=O)N2Cc3cccn3Cc3ccccc32)cc1 : 15

Shifting focus to the compound that follows.
Provide Average Change, tested on Vasopressin V1, for `Cc1cc(C(=O)N2Cc3cccn3Cc3ccccc32)ccc1NC(=O)c1ccc(Cl)cc1Cl` .
8.5

----------
biological target: oxytocin receptors (Rattus norvegicus, UniProt P70536); construct: The uteri are dissected out, cleaned of fat and connective tissues; from tissue; host or cells: uterus of DES-treated female Sprague-Dawley rats; assay: Oxytocin Receptor Binding; conditions: dose 10 μM, [3H]oxytocin
Sequence (P70536 whole entry): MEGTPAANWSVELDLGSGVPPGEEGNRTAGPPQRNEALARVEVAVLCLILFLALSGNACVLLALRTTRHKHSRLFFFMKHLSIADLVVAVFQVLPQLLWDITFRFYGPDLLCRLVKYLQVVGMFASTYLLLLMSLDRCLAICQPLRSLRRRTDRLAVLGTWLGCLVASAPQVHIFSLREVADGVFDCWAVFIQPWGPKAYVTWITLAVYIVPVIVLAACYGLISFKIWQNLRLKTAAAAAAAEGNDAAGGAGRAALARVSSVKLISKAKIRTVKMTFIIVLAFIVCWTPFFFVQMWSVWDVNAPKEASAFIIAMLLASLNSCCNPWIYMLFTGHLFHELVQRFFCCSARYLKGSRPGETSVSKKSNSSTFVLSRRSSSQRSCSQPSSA
parameter_measured: inhibition at 10 µM (%)
Give the value, in units of %, as a plain number.

Here are 4 compounds together with their reported answers.
O=C(c1ccc([N+](=O)[O-])cc1)N1Cc2ccc(C(=O)C(F)(F)F)n2Cc2ccccc21 [Example 451] : 43
Cc1ccc(F)cc1C(=O)Nc1ccc(C(=O)O)cc1 [Example 417] : 21
Cc1ccccc1C(=O)Nc1ccc(C(=O)N2CCc3cccn3-c3ccccc32)cc1 [Example 297] : 76
Cc1cc(C(=O)N2Cc3cccn3Cc3ccccc32)ccc1NC(=O)c1ccccc1C [Example 96] : 94

Please list inhibition at 10 µM recorded for the compound Cc1ccccc1CC(=O)Nc1ccc(C(=O)N2Cc3cccn3-c3ccccc32)cc1 [Example 36]
67

Please list inhibition at 10 µM recorded for the compound O=C(Nc1ccc(C(=O)N2Cc3cccn3Cc3ccccc32)c(Cl)c1)c1cccc(F)c1 [Example 538]
90

Please list inhibition at 10 µM recorded for the compound O=C(Nc1ccc(C(=O)N2Cc3cccn3Cc3ccccc32)cc1)c1sccc1Cl [Example 476]
94

Please list inhibition at 10 µM recorded for the compound Cc1ccccc1C(=O)Nc1ccc(C(=O)N2Cc3ccnn3Cc3ccccc32)c(Cl)c1 [Example 519]
97

----------
tested on: Vasopressin V1; test: Vasopressin V1 Antagonist Activity in Conscious Rats (vasopressin vasopressor response); format: in vivo, rat; conditions: 10 mg/kg i.v.
parameter_measured: Max. % Inhibition (%)
Give the value, in units of %, as a plain number.

Please list Max. % Inhibition recorded for the molecule `O=C(Nc1ccc(C(=O)N2Cc3ccc(Cn4ccnc4)n3Cc3ccccc32)cc1)c1ccc(Cl)cc1Cl`
75

Please list Max. % Inhibition recorded for the molecule `O=C(Nc1ccc(C(=O)N2Cc3cccn3Cc3ccccc32)cc1)c1c(Cl)cccc1Cl`
69

Please list Max. % Inhibition recorded for the molecule `O=C(Nc1ccc(C(=O)N2Cc3ccc(CO)n3Cc3ccccc32)cc1)c1ccc(Cl)cc1Cl`
94

Please list Max. % Inhibition recorded for the molecule `COc1cc(C(=O)N2Cc3cccn3Cc3ccccc32)ccc1NC(=O)c1ccccc1C`
88

Please list Max. % Inhibition recorded for the molecule `CN(C)CN(C(=O)c1ccc(Cl)cc1Cl)c1ccc(C(=O)N2Cc3cccn3Cc3ccccc32)cc1`
74

Please list Max. % Inhibition recorded for the molecule `O=C(Nc1ccc(C(=O)N2Cc3cccn3Cc3ccccc32)cc1)c1cc([N+](=O)[O-])ccc1Cl`
29

----------
tested on: Vasopressin V1; assay: Vasopressin V1 Antagonist Activity in Conscious Rats (vasopressin vasopressor response); assay type: in vivo, rat; parameters: unit not given here; settings: 10 mg/kg i.v., VAS 0.01 i.u./kg, 240 min, SHR
Measured Average Change, listed per entry.
Write the value as a bare number.

Please list Average Change recorded for the compound `Cc1ccccc1NC(=O)Nc1ccc(C(=O)N2Cc3cccn3Cc3ccccc32)cc1`
16

Please list Average Change recorded for the compound `O=C(Nc1ccc(C(=O)N2Cc3cccn3Cc3ccccc32)cc1)c1cccc(F)c1F`
27

Please list Average Change recorded for the compound `Cc1ccccc1C(=O)Nc1ccc(C(=O)N2Cc3cccn3-c3ccccc32)cc1`
28.5

Please list Average Change recorded for the compound `O=C(Nc1ccc(C(=O)N2Cc3cccn3Cc3ccccc32)cc1)c1ccc(Cl)cc1Cl`
24

----------
Test system: Vasopressin V1
Experiment: Vasopressin V1 Antagonist Activity in Conscious Rats (vasopressin vasopressor response)
Type: in vivo, rat
Settings: 10 mg/kg i.v., VAS 0.02 i.u./kg, 180 min, SHR
Protocol: Vasopressin V1 Antagonist Activity in Conscious Rats Conscious rats are restrained in a supine position with elastic tape. The area at the base of the tail is locally anesthetized by subcutaneous infiltration with 2% procaine (0.2 ml). […] The animals are placed in plastic restraining cages in an upright position. The cannula is attached to a Statham P23Db pressure transducer and pulsatile blood pressure is recorded. […]
parameter_measured: % Inhibition (%)
Give the value, in units of %, as a plain number.

Here are 2 compounds together with their reported answers.
Cc1ccccc1C(=O)Nc1ccc(C(=O)N2Cc3ccc(Cl)n3Cc3ccccc32)cc1 : 58
Cc1ccccc1NC(=O)Nc1ccc(C(=O)N2Cc3cccn3Cc3ccccc32)cc1 : 17

Please list % Inhibition recorded for the compound `Cc1ccccc1C(=O)N(C)c1ccc(C(=O)N2Cc3cccn3Cc3ccccc32)cc1`
64

Please list % Inhibition recorded for the compound `O=C(Nc1ccc(C(=O)N2Cc3cccn3Cc3ccccc32)cc1)C1CCCCC1`
63

----------
target: Rat Kidney Medullary V2 Receptors (Rattus norvegicus); construct: Medullary tissues from rat kidneys are dissected out; from tissue; host or cells: rat kidney medulla membranes; assay: Binding Assay to Rat Kidney Medullary V2 Receptors; details: rat kidney medulla membranes; read-out: V2 IC50
Sequence (Q00788 whole entry): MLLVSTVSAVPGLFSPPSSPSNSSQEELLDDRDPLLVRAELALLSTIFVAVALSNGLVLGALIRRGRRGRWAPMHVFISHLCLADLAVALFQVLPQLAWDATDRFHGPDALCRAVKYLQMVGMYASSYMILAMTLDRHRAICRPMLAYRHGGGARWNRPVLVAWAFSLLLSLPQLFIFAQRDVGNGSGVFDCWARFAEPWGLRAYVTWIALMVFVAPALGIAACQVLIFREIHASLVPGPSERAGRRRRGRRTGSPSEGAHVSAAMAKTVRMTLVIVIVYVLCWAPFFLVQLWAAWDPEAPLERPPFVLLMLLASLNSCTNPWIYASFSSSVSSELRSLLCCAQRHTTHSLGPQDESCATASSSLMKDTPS
Would you mind classing the entries by IC50? Ranges: lo (below 10 nM), med (10 nM to below 50 nM), hi (50 nM or more)

Some entries whose results are on file:
O=C(Nc1ccc(C(=O)N2Cc3cccn3Cc3ccccc32)cc1)c1cccc(C(F)(F)F)c1 : med
O=C(Nc1ccc(C(=O)N2Cc3cccn3Cc3ccccc32)cc1)c1ccc2[nH]ccc2c1 : hi
CC(=O)OC(C(=O)Nc1ccc(C(=O)N2Cc3cccn3Cc3ccccc32)cc1)c1ccccc1 (centres unmarked) : med
CSc1ccccc1C(=O)Nc1ccc(C(=O)N2Cc3cccn3Cc3ccccc32)cc1 : med
Cc1ccsc1C(=O)Nc1ccc(C(=O)N2Cc3cccn3Cc3ccccc32)cc1 : med
O=C(Nc1ccc(C(=O)N2Cc3ccc(CN4CCOCC4)n3Cc3ccccc32)cc1)c1ccc(Cl)cc1Cl : med
Cc1ccccc1CC(=O)Nc1ccc(C(=O)N2Cc3cccn3-c3ccccc32)cc1 : hi
Cc1ccccc1C(=O)Nc1ccc(C(=O)N2Cc3cccn3-c3ccccc32)cc1 : hi

Band for the recorded IC50 of `Cc1ccccc1C(=O)Nc1ccc(C(=O)N2Cc3cccn3Cc3ccccc32)cc1Cl` ?
lo

Band for the recorded IC50 of `CC(=O)c1ccc2n1Cc1ccccc1N(C(=O)c1ccc(NC(=O)c3ccc(Cl)cc3Cl)cc1)C2` ?
hi

Band for the recorded IC50 of `Cc1ccccc1CC(=O)Nc1ccc(C(=O)N2Cc3cccn3Cc3ccccc32)cc1` ?
lo
